assay: ATG_AP_1_CIS: Attagene CIS-FACTORIAL HepG2 Assay for human Activator Protein 1 (AP-1) (AID 2282931); settings: HepG2 Attagene cis-factorial AP-1 reporter mRNA; actives raise or lower the signal
Calls of active or inactive are those of the source. Rule for the calls: active = hit-call score of the fitted dose curve at least 0.9, where 1 is the maximum; inactive = score below 0.9.
Your answer must be one of the following: 1 (active), -1 (inactive)

Prompt line: What classification did O=P1(NCCCl)OCCCN1CCCl (stereo not drawn) end up with in this test?
Response line: -1

Prompt line: Recorded call for `O=[N+]([O-])O.O=[N+]([O-])O.[Cd]` ?
Response line: 1

Prompt line: GET /call?item= `CN(C)CCC#N` returns the recorded outcome of this test.
Response line: -1

Prompt line: Fill in: this test's call for `O=[N+]([O-])c1cc([N+](=O)[O-])c2ccccc2c1` is ___
Response line: 1

Prompt line: Recorded test outcome, item `O=C1C=CC(=O)C=C1`
Response line: 1

Prompt line: Recorded call for CC(O)CN(CC(C)O)CC(C)O (stereo not drawn) ?
Response line: -1

Prompt line: Dear colleague, could you share the recorded outcome for `Nc1ccc([N+](=O)[O-])cc1N` when you have a moment?
Response line: -1

Prompt line: Hey, what did the test say about `Oc1ccc(Cl)cc1` ?
Response line: -1

Prompt line: Fill in: this test's call for `CC1(C)C(=O)NC(=O)NC1=O` is ___
Response line: -1

Prompt line: How did this test come out for `Cc1ccccc1CCl` ?
Response line: -1

Prompt line: Recorded test outcome, item CCC(C)c1cc(C(C)(C)C)cc(-n2nc3ccccc3n2)c1O (stereo not drawn)
Response line: -1

Prompt line: What did this assay record as the result for `CCOC(=O)NC(=S)Nc1ccccc1NC(=S)NC(=O)OCC` ?
Response line: -1

Prompt line: Status in this test for `CNC(=O)Oc1cc(C)c(SC)c(C)c1` ?
Response line: -1

Prompt line: Status in this test for `O=[N+]([O-])c1cc(C(F)(F)F)c(Cl)c([N+](=O)[O-])c1Cl` ?
Response line: -1

Prompt line: Short answer needed: outcome of this test for CC1OC(C)OC(C)O1 (stereo not drawn) ?
Response line: -1

Prompt line: Tell me the recorded outcome of this test for `C=CC(=O)OC` .
Response line: -1

Prompt line: Outcome logged for `O=C(NC(=O)c1c(F)cccc1F)Nc1ccc(Oc2ccc(C(F)(F)F)cc2Cl)cc1F` in this assay:
Response line: -1

Prompt line: Assay result, entry `ClCCCCCCCl` — outcome?
Response line: -1

Prompt line: # lookup: test call for `CC1CCCC1.[C-]#[O+].[C-]#[O+].[C-]#[O+].[Mn]`
Response line: -1

Prompt line: Write down the call the test reported for this compound. Item: `CC(C)(c1cc(Cl)c(O)c(Cl)c1)c1cc(Cl)c(O)c(Cl)c1`
Response line: -1

Prompt line: How was `C=Cc1cccc(CCl)c1` classified in this test?
Response line: -1

Prompt line: What classification did `CCC(=O)c1ccc(Cl)cc1` end up with in this test?
Response line: -1

Prompt line: # lookup: test call for `O=C(O)COc1ccccc1`
Response line: -1

Prompt line: Hi, sorry to bother you, what did the test record for `CCOC(=O)N(C)N=O` ?
Response line: -1

Prompt line: GET /call?item= `C[N+](C)(C)CC(=O)[O-]` returns the recorded outcome of this test.
Response line: -1

Prompt line: GET /call?item= `COC(=O)c1ccccc1S(=O)(=O)NC(=O)Nc1nc(C)cc(C)n1` returns the recorded outcome of this test.
Response line: -1

Prompt line: Could you please tell me the result logged for CCC1CCC(=O)O1 (stereo not drawn) in this assay?
Response line: -1

Prompt line: In this assay, the call recorded for `Cc1cc(C)c(C2=C(OC(=O)CC(C)(C)C)C3(CCCC3)OC2=O)c(C)c1` was what?
Response line: 1

Prompt line: Fill in: this test's call for `C[C@]12CC[C@H]3[C@@H](CC[C@@]45O[C@@H]4C(O)=C(C#N)C[C@]35C)[C@@H]1CC[C@@H]2O` is ___
Response line: -1

Prompt line: Test call, this compound: `C#CC1(O)CCCCC1`
Response line: -1

Prompt line: Each compound tested received a call. Report the one for `COC(C)(C)CCC[C@H](C)C/C=C/C(C)=C/C(=O)OC(C)C` .
Response line: 1

Prompt line: Write down the call the test reported for this compound. Item: `O=[N+]([O-])c1ccc(Cl)cc1`
Response line: -1

Prompt line: Please share the test call associated with `CCN(CC)C(=S)S` .
Response line: 1

Prompt line: Could you kindly confirm the outcome this assay logged for `CC(=O)/C=C/c1ccccc1` ?
Response line: 1

Prompt line: Outcome? `CCC(C)(C)O`
Response line: -1

Prompt line: Write down the call the test reported for this compound. Item: `[CH3][Sn]([Cl])([Cl])[Cl]`
Response line: -1

Prompt line: Hi, sorry to bother you, what did the test record for `CCOC(=O)COc1ccc(Cl)cc1Cl` ?
Response line: -1

Prompt line: Entry `CC(C)CCCCCCCOP(=O)(Oc1ccccc1)Oc1ccccc1` : call = ?
Response line: 1

Prompt line: // return assay outcome for `COc1cc(OC)nc(Oc2cccc(Oc3nc(OC)cc(OC)n3)c2C(=O)O)n1`
Response line: -1

Prompt line: How did this test come out for `CC(C)c1ccc(O)cc1` ?
Response line: -1

Prompt line: Returns: the outcome recorded for `COc1ccc(CO)cc1` in this assay.
Response line: -1

Prompt line: Call for entry CC1CCC(=O)O1 (stereo not drawn) :
Response line: -1

Prompt line: Give the logged outcome of this assay for the following compound: `CC(C)C(=O)Cl`
Response line: -1

Prompt line: Assay outcome for `C[N+](=O)[O-]` : what was it?
Response line: -1

Prompt line: What call does the record list for Cc1ccc(OP(=O)(Oc2ccc(C)cc2)Oc2ccc(C)cc2)cc1 (tested in a mixture with another compound) ?
Response line: -1

Prompt line: Can you look up the reported call for `CCNCC` for me?
Response line: -1

Prompt line: Would you mind telling me which call this test gave `CC(C)CCCCCCCOC(=O)c1ccccc1C(=O)OCCCCCCCC(C)C` ?
Response line: -1

Prompt line: Hi, sorry to bother you, what did the test record for `CC1(C)CC(=O)CC(C)(C)N1[O]` ?
Response line: -1

Prompt line: Outcome? CC(C)(C)C(O)C(Oc1ccc(-c2ccccc2)cc1)n1cncn1 (stereo not drawn)
Response line: 1

Prompt line: Which outcome was assigned to `[Cl-].[Cl-].[Cl-].[Yb+3]` in this test?
Response line: -1

Prompt line: How did this test come out for `NNc1ccccc1` ?
Response line: -1

Prompt line: Could you check what this test reported for `C=COCCCl` ?
Response line: -1

Prompt line: Per the records of this test, what outcome belongs to `Cc1ncc(C[n+]2csc(CCO)c2C)c(N)n1` ?
Response line: -1

Prompt line: Record lookup: outcome of this test for `Nc1ccccc1C(=O)OCCc1ccccc1` ?
Response line: -1

Prompt line: Hi, sorry to bother you, what did the test record for `CCOP(=O)(OCC)OCC` ?
Response line: -1

Prompt line: What classification did `O=C=Nc1ccccc1` end up with in this test?
Response line: -1

Prompt line: Call for entry `N#CCNCC#N` :
Response line: -1

Prompt line: Which outcome did this test record for the compound `C=CCc1ccc(OC(=O)Cc2ccccc2)c(OC)c1` ?
Response line: -1

* * *

target: Estrogen receptor beta (Homo sapiens); assay: OT_ER_ERbERb_1440: Odyssey Thera (OT) 24-hour HEK293T Protein-Complementation Assay for Estrogen Receptor-beta/-beta Homodimer (AID 2283380);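 note: fluorescence gain from ER beta LBD homodimer complementation read by laser scanning cytometry; scored as signal increase over DMSO baseline for both agonists and antagonists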
Calls of active or inactive are those of the source. How the source made its calls: active means hit-call score of the fitted dose curve at least 0.9, where 1 is the maximum; inconclusive means response in the unintended direction; inactive means score below 0.9.
endpoint: AC50

INSERT INTO assay_data (compound, assay_system, result_value) VALUES
  ('CC(C)c1ccc(O)cc1', 'Estrogen receptor beta (Homo sapiens)', '50 µM (active)'),
  ('c1cc[n+]2c(c1)-c1cccc[n+]1CC2', 'Estrogen receptor beta (Homo sapiens)', 'inactive'),
  ('O=C(NC(=O)c1c(F)cccc1F)Nc1ccc(Oc2ccc(C(F)(F)F)cc2Cl)cc1F', 'Estrogen receptor beta (Homo sapiens)', 'inactive'),
  ('CCOC(=O)NC(=S)Nc1ccccc1NC(=S)NC(=O)OCC', 'Estrogen receptor beta (Homo sapiens)', 'inactive');

Prompt line: AC50 lookup needed for `CCOP(=O)(OCC)OCC` , thanks.
Response line: inactive

Prompt line: What value of measured AC50 is listed for O=C(NCNC(=O)NC1C(=O)NC(=O)N1CO)NC1C(=O)NC(=O)N1CO (stereo unspecified) ?
Response line: inactive

* * *

target: Androgen receptor (Homo sapiens) (UniProt P10275); test: ATG_AR_TRANS: Attagene TRANS-FACTORIAL HepG2 Assay for human Androgen Receptor (AR) (AID 2282973); settings: HepG2 Attagene TRANS-FACTORIAL AR reporter transcription
Sequence (P10275 whole entry, looked up): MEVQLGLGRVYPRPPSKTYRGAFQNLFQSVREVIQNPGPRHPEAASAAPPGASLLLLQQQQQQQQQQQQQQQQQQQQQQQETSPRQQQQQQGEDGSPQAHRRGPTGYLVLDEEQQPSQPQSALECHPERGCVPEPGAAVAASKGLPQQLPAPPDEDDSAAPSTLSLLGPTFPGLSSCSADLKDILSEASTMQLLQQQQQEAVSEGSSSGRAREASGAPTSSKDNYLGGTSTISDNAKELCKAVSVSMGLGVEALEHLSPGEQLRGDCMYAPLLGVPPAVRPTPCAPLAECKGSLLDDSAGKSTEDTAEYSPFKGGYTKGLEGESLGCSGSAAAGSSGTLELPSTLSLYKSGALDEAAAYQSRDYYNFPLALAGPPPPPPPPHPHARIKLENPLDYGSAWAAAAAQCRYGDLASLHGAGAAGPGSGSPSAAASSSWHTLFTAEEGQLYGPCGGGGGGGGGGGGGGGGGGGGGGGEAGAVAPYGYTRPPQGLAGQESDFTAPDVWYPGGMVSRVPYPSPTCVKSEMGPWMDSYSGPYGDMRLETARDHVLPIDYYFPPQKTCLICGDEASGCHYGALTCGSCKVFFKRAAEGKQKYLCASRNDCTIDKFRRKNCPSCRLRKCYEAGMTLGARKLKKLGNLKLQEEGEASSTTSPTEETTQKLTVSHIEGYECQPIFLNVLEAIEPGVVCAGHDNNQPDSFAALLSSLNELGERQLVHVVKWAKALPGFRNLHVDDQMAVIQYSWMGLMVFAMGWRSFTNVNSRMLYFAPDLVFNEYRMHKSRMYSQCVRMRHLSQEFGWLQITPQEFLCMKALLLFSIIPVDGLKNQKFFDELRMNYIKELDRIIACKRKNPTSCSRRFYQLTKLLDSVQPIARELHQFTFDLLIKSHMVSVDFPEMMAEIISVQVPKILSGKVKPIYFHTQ
Results filed as inconclusive are left out. Calls of active or inactive are those of the source. How the source made its calls: active means hit-call score of the fitted dose curve at least 0.9, where 1 is the maximum; inconclusive means response in the unintended direction; inactive means score below 0.9.
endpoint: outcome

Consider the reported outcome for these compounds:
INSERT INTO assay_data (compound, assay_system, result_value) VALUES
  ('N[C@H]1C(O)O[C@H](CO)[C@H](O)[C@@H]1O (stereo not given in full)', 'Androgen receptor (Homo sapiens) (UniProt P10275)', 'inactive'),
  ('CCCCCC(=O)O', 'Androgen receptor (Homo sapiens) (UniProt P10275)', 'inactive'),
  ('COc1ccc(CCO)cc1', 'Androgen receptor (Homo sapiens) (UniProt P10275)', 'inactive'),
  ('N#CSCSc1nc2ccccc2s1', 'Androgen receptor (Homo sapiens) (UniProt P10275)', 'inactive'),
  ('Clc1ccc2c(Cl)ccnc2c1', 'Androgen receptor (Homo sapiens) (UniProt P10275)', 'inactive'),
  ('CCCCCCCCCC[N+](C)(C)[O-]', 'Androgen receptor (Homo sapiens) (UniProt P10275)', 'inactive'),
  ('O=C(CC(=O)C(F)(F)C(F)(F)C(F)(F)F)c1cccs1', 'Androgen receptor (Homo sapiens) (UniProt P10275)', 'inactive'),
  ('CC(CO)c1ccccc1 (stereo not given)', 'Androgen receptor (Homo sapiens) (UniProt P10275)', 'inactive');

Prompt line: Reported outcome for `COc1ccc(S(=O)(=O)N2C(=O)[C@@](c3ccccc3OC)(N3C[C@H](O)C[C@H]3C(=O)N(C)C)c3cc(Cl)ccc32)c(OC)c1` : what is it?
Response line: inactive

Prompt line: Which outcome is listed for `NS(=O)(=O)C(F)(F)C(F)(F)C(F)(F)C(F)(F)C(F)(F)C(F)(F)F` ?
Response line: inactive

Prompt line: // outcome lookup, key: CCOC(=O)CC(C)O (stereo not given)
Response line: inactive

Prompt line: Return reported outcome; argument: `NC(=O)OCC(COC(N)=O)c1ccccc1`
Response line: inactive

Prompt line: Which outcome value belongs to `O=C(O)C(F)(F)C(F)(F)C(F)(F)C(F)(F)F` ?
Response line: inactive

Prompt line: Need outcome of `CSc1ccc(Oc2ccc(S(N)(=O)=O)cc2CN(C)C)cc1C` , thanks.
Response line: inactive

Prompt line: GET /values?readout=outcome&item= `CCN(CC)c1ccc(C(=C2C=CC(=[N+](CC)CC)C=C2)c2ccc(S(=O)(=O)O)cc2S(=O)(=O)[O-])cc1`
Response line: inactive

Prompt line: Quick one: outcome for `Oc1cc2ccccc2c2ccccc12` ?
Response line: inactive

Prompt line: Look up outcome for this compound: `O=S(=O)(O)c1ccc(Nc2nc(Nc3ccc(C=Cc4ccc(Nc5nc(Nc6ccc(S(=O)(=O)O)cc6)nc(N(CCO)CCO)n5)cc4S(=O)(=O)O)c(S(=O)(=O)O)c3)nc(N(CCO)CCO)n2)cc1`
Response line: inactive

Prompt line: Look up outcome: `C=C(C)[C@H]1CC=C(C)C(=O)C1`
Response line: inactive

Prompt line: GET /values?readout=outcome&item= `NCC(F)(F)C(F)(F)C(F)(F)C(F)(F)C(F)(F)C(F)(F)C(F)(F)F`
Response line: inactive

Prompt line: State the recorded outcome for this entry: `CCN(CC)c1ccc2c(c1)Oc1cc(N(CC)CC)ccc1C21OC(=O)c2ccccc21`
Response line: inactive

Prompt line: Which outcome is listed for COCC1CCC(CO)CC1 (stereo not given) ?
Response line: inactive

Prompt line: // returns reported outcome for input CC1CNCC(C)O1 (stereo not given)
Response line: inactive

Prompt line: For `CC(=O)N(C)C` , what is its reported outcome?
Response line: inactive

Prompt line: Reported outcome, compound `c1ccc2[nH]ccc2c1` : ____
Response line: inactive

Prompt line: Which outcome value is on record for `CCCCC[Si](OCC)(OCC)OCC` ?
Response line: inactive
